The origin of these recorded values is patent US20230233569A1.

Listing of recorded IC50 by entry.
biological target: NRAS G12C (Homo sapiens, UniProt P01111+P62937, G12C); test: Ras-Raf disruption / FRET / MOA assay (BRAF RBD); type: biochemical; conditions: NRAS G12C; read-out: NRAS G12C FRET data IC50
Sequence (P01111 whole entry G12C): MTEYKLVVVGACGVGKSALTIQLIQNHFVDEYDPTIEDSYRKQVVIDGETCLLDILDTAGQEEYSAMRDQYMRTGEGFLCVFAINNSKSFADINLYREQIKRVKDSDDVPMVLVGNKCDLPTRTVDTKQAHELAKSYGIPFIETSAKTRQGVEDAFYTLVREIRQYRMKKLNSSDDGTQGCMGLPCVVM
Sequence (P62937 whole entry): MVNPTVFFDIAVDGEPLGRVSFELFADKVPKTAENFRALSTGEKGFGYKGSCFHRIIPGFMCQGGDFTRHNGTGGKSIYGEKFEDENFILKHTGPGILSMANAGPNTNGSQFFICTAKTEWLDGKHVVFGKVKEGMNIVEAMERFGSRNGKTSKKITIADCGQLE

Please review the following examples before continuing.
- molecule: "CCn1c(-c2cccnc2[C@H](C)OC)c2c3cc(ccc31)-c1cc(O)cc(c1)C[C@H](NC(=O)[C@H](C(C)C)N(C)C(=O)N1C[C@@H]3[C@H]1CCN3C(=O)[C@H]1CN1)C(=O)N1CCC[C@H](N1)C(=O)OCC(C)(C)C2 (atropisomer, axis not shown)"
  IC50: "100 to 1000 nM"
- molecule: "CCn1c(-c2cccnc2[C@H](C)OC)c2c3cc(ccc31)-c1cccc(c1)C[C@H](NC(=O)[C@H](C(C)C)N(C)C(=O)[C@H]1C[C@H](N=C=NCCOC)C1)C(=O)N1CCC[C@H](N1)C(=O)OCC(C)(C)C2"
  IC50: "10 to 100 nM"
- molecule: "CCn1c(-c2cccnc2[C@H](C)OC)c2c3cc(ccc31)-c1cc(O)cc(c1)C[C@H](NC(=O)[C@H](C(C)C)N(C)C(=O)C1CCN(C(=O)[C@@H]3CN3)CC1)C(=O)N1CCC[C@H](N1)C(=O)OCC(C)(C)C2"
  IC50: "10 to 100 nM"

Now look at this one.
Challenge: Given CCn1c(-c2cccnc2[C@H](C)OC)c2c3cc(ccc31)-c1cc(O)cc(c1)C[C@H](NC(=O)[C@H](C(C)C)N1CC[C@@]3(CCN(C[C@@H]4CN4)C3)C1=O)C(=O)N1CCC[C@H](N1)C(=O)OCC(C)(C)C2 , respond with its IC50.
Response given: < 10 nM

====

target: NRAS G12C (Homo sapiens, UniProt P01111+P62937, G12C); test: Disruption of BRAF RBD interaction with Ras (FRET / MOA assay, with Cyclophilin A); format: biochemical; settings: NRAS G12C; read-out: NRAS G12C FRET data IC50
metric: IC50

Please review the following examples before continuing.
- molecule: "CCn1c(-c2cnccc2COC)c2c3cc(ccc31)-c1cc(O)cc(c1)C[C@H](NC(=O)[C@H](C(C)C)N(C)C(=O)CN1CCOCC1)C(=O)N1CCC[C@H](N1)C(=O)OCC(C)(C)C2"
  tested.on: "NRAS G12C (Homo sapiens, UniProt P01111+P62937, G12C)"
  result: "0.1 to 1 µM"
- molecule: "CCn1c(-c2cccnc2[C@H](C)OC)c2c3cc(ccc31)-c1csc(n1)C[C@H](NC(=O)[C@H](C(C)C)N(C)C(=O)N1CC(N(C)C3CC3)C1)C(=O)N1CCC[C@H](N1)C(=O)OCC(C)(C)C2 (atropisomer, axis not shown)"
  tested.on: "NRAS G12C (Homo sapiens, UniProt P01111+P62937, G12C)"
  result: "0.01 to 0.1 µM"

Challenge: Given CCn1c(-c2cccnc2[C@H](C)OC)c2c3cc(ccc31)-c1cc(O)cc(c1)C[C@H](NC(=O)[C@H](C(C)C)N(C)C(=O)C13CNCC1C3)C(=O)N1CCC[C@H](N1)C(=O)OCC(C)(C)C2 (stereo partly shown) , respond with its IC50.
Response given: 0.1 to 1 µM

Challenge: Given CCn1c(-c2cccnc2[C@H](C)OC)c2c3cc(ccc31)-c1cc(O)cc(c1)C[C@H](NC(=O)[C@H](C(C)C)N(C)C(=O)[C@H]1C[C@@H]1C)C(=O)N1CCC[C@H](N1)C(=O)OCC(C)(C)C2 , respond with its IC50.
Response given: 0.1 to 1 µM
